# tested.on: interaction between HDM2 and p53 (GST-hMDM2 (1-188) / biotinylated-p53 (1-83)) (Homo sapiens (Human))
# Sequence (Q00987 1-188): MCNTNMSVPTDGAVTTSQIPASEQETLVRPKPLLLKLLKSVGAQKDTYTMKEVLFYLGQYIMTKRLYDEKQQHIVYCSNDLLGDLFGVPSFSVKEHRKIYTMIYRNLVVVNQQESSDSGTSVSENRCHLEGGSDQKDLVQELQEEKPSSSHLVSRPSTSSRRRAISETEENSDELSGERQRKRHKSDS
# assay.details: HTRF2 Assay (improved HTRF assay)
# Format: binding
# test.settings: 0.2 nM GST-hMDM2 (1-188), 0.5 nM biotinylated-p53 (1-83), 100 mM KF; read-out: HTRF2 IC50
measure.name: IC50 (nM)
One number for each entry, in nM.

compound	assay.result
CCC[C@H](C(=O)O)N1C(=O)[C@H](Cc2ccccc2C#N)O[C@@H](c2ccc(Cl)cc2)[C@H]1c1ccc(Cl)cc1 [Example 46]	259
CCC[C@H](C(=O)O)N1C(=O)[C@H](CCCN2CCOCC2)O[C@@H](c2ccc(Cl)cc2)[C@H]1c1ccc(Cl)cc1 [Example 57]	391
CCC[C@H](C(=O)NCCCC(=O)OC)N1C(=O)[C@H](Cc2ccc(S(C)(=O)=O)cc2)O[C@@H](c2ccc(Cl)cc2)[C@H]1c1ccc(Cl)cc1	749
O=C1CS(=O)(=O)[C@@H](c2cccc(Cl)c2)[C@@H](c2ccc(Cl)cc2)N1CC1CC1	22400
CCC[C@H](C(=O)O)N1C(=O)[C@H](CCCO)O[C@@H](c2ccc(Cl)cc2)[C@H]1c1ccc(Cl)cc1	3010
CCC[C@H](C(=O)NCCCC(=O)O)N1C(=O)[C@H](Cc2ccc(S(C)(=O)=O)cc2)O[C@@H](c2ccc(Cl)cc2)[C@H]1c1ccc(Cl)cc1	2440
CCC[C@H](C(=O)O)N1C(=O)[C@H](Cc2ccc(S(C)(=O)=O)c(F)c2)O[C@@H](c2ccc(Cl)cc2)[C@H]1c1ccc(Cl)cc1 [Example 53]	276
CCC[C@H](C(=O)O)N1C(=O)[C@H](Cc2ccccc2S(C)(=O)=O)O[C@@H](c2ccc(Cl)cc2)[C@H]1c1ccc(Cl)cc1 [Example 51]	676

For every item below, please supply its IC50.
1. CCC[C@H](C(=O)O)N1C(=O)[C@H](Cc2ccc(S(C)(=O)=O)cc2)O[C@@H](c2ccc(Cl)cc2)[C@H]1c1ccc(Cl)cc1 [Example 54]
2. CCC[C@H](C(=O)O)N1C(=O)[C@H](Cc2ccccc2)O[C@@H](c2ccc(Cl)cc2)[C@H]1c1ccc(Cl)cc1 [Example 44]
3. CCC[C@@H](C(=O)O)N1C(=O)[C@@H](Cc2ccncc2)O[C@H](c2ccc(Cl)cc2)C1c1ccc(Cl)cc1 (mixture of isomers) [Example 42]
4. C=CC[C@H]1O[C@H](c2ccc(Br)cc2)[C@H](c2ccc(Br)cc2)N(C)C1=O
5. CN(C)C(=O)C[C@H]1O[C@H](c2cccc(Cl)c2)[C@H](c2ccc(Cl)cc2)N(CC2CC2)C1=O
6. CCC[C@H](CN)N1C(=O)CO[C@@H](c2ccc(Cl)cc2)[C@H]1c1ccc(Cl)cc1

A:
[196, 757, 947, 25000, 7560, 6090]
